Attribution: PubChem BioAssay AID2060890

Below, each of the compounds is paired with its reported viability, T/C value.
system: LG0703-F948-PDC complex spheroid viability; assay: Anticancer human tumor LG0703-F948-PDC patient-derived lung adenocarcinoma cell line growth inhibition [RAS]; conditions: second compound 0.000949 µM; first compound 1 µM; stronger effect = lower value;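 also: spheroids exposed to agents for 7 days; 100% = DMSO vehicle wells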
Just the number in %, nothing appended.

| compound | viability, T/C / % |
| --- | --- |
| C[C@@H](NC(=O)c1ncnc(N)c1Cl)c1ncc(C(=O)Nc2cc(C(F)(F)F)c(Cl)cn2)s1 + CCn1c(-c2cc(N3CCN(C)CC3)cnc2C(C)OC)c2c3cc(ccc31)-c1csc(n1)CC(NC(=O)C1CC1C)C(=O)N1CCCC(N1)C(=O)OCC(C)(C)C2 | 76.4 |
| NC1c2ccccc2OC12CCN(c1cnc3c(N4CCCc5ncccc54)n[nH]c3n1)CC2 (stereo not given) + CCn1c(-c2cc(N3CCN(C)CC3)cnc2C(C)OC)c2c3cc(ccc31)-c1csc(n1)CC(NC(=O)C1CC1C)C(=O)N1CCCC(N1)C(=O)OCC(C)(C)C2 | 8.58 |

Enquiry: What value of viability, T/C on LG0703-F948-PDC complex spheroid viability does Cc1nc(N2CCC3(CC2)COC(C)C3N)c(CO)nc1Sc1ccnc(N)c1Cl (stereo not given) + CCn1c(-c2cc(N3CCN(C)CC3)cnc2C(C)OC)c2c3cc(ccc31)-c1csc(n1)CC(NC(=O)C1CC1C)C(=O)N1CCCC(N1)C(=O)OCC(C)(C)C2 have?
Return: 18.2

Enquiry: What value of viability, T/C on LG0703-F948-PDC complex spheroid viability does CC(Nc1ccc2c(c1)OCCn1cc(N3C(=O)OCC3C(F)F)nc1-2)C(N)=O (stereo not given) + CCn1c(-c2cccnc2C(C)OC)c2c3cc(ccc31)N1CCOC(CC(NC(=O)C(C(C)C)N(C)C(=O)C3(F)CCN(C(=O)C#CC(C)(C)N(C)C)CC3)C(=O)N3CCCC(N3)C(=O)OCC(C)(C)C2)C1 have?
Return: 63.6

Enquiry: What value of viability, T/C on LG0703-F948-PDC complex spheroid viability does Nc1ccn(C2OC(CO)C(O)C2(F)F)c(=O)n1 (stereo not given) + CCn1c(-c2cccnc2C(C)OC)c2c3cc(ccc31)N1CCOC(CC(NC(=O)C(C(C)C)N(C)C(=O)C3(F)CCN(C(=O)C#CC(C)(C)N(C)C)CC3)C(=O)N3CCCC(N3)C(=O)OCC(C)(C)C2)C1 have?
Return: 30

Enquiry: What value of viability, T/C on LG0703-F948-PDC complex spheroid viability does NC1c2ccccc2OC12CCN(c1cnc3c(N4CCCc5ncccc54)n[nH]c3n1)CC2 (stereo not given) + CCn1c(-c2cccnc2C(C)OC)c2c3cc(ccc31)N1CCOC(CC(NC(=O)C(C(C)C)N(C)C(=O)C3(F)CCN(C(=O)C#CC(C)(C)N(C)C)CC3)C(=O)N3CCCC(N3)C(=O)OCC(C)(C)C2)C1 have?
Return: 12.4

Enquiry: What value of viability, T/C on LG0703-F948-PDC complex spheroid viability does C=CC(=O)Nc1cc(Nc2nccc(-c3cn(C)c4ccccc34)n2)c(OC)cc1N(C)CCN(C)C + CCn1c(-c2cccnc2C(C)OC)c2c3cc(ccc31)N1CCOC(CC(NC(=O)C(C(C)C)N(C)C(=O)C3(F)CCN(C(=O)C#CC(C)(C)N(C)C)CC3)C(=O)N3CCCC(N3)C(=O)OCC(C)(C)C2)C1 have?
Return: 13.9

Enquiry: What value of viability, T/C on LG0703-F948-PDC complex spheroid viability does C[C@@H](NC(=O)c1ncnc(N)c1Cl)c1ncc(C(=O)Nc2cc(C(F)(F)F)c(Cl)cn2)s1 + CCn1c(-c2cccnc2C(C)OC)c2c3cc(ccc31)N1CCOC(CC(NC(=O)C(C(C)C)N(C)C(=O)C3(F)CCN(C(=O)C#CC(C)(C)N(C)C)CC3)C(=O)N3CCCC(N3)C(=O)OCC(C)(C)C2)C1 have?
Return: 110

Enquiry: What value of viability, T/C on LG0703-F948-PDC complex spheroid viability does C=CC(=O)Nc1cc(Nc2nccc(-c3cn(C)c4ccccc34)n2)c(OC)cc1N(C)CCN(C)C + CCn1c(-c2cc(N3CCN(C)CC3)cnc2C(C)OC)c2c3cc(ccc31)-c1csc(n1)CC(NC(=O)C1CC1C)C(=O)N1CCCC(N1)C(=O)OCC(C)(C)C2 have?
Return: 9.33

Enquiry: What value of viability, T/C on LG0703-F948-PDC complex spheroid viability does O=C(c1ccc(F)c(F)c1Nc1ccc(I)cc1F)N1CC(O)([C@@H]2CCCCN2)C1 + CCn1c(-c2cc(N3CCN(C)CC3)cnc2C(C)OC)c2c3cc(ccc31)-c1csc(n1)CC(NC(=O)C1CC1C)C(=O)N1CCCC(N1)C(=O)OCC(C)(C)C2 have?
Return: 14.4

Enquiry: What value of viability, T/C on LG0703-F948-PDC complex spheroid viability does CCC(CC)c1cc(NC2CCC(N)C2)n2nccc2n1 (stereo not given) + CCn1c(-c2cc(N3CCN(C)CC3)cnc2C(C)OC)c2c3cc(ccc31)-c1csc(n1)CC(NC(=O)C1CC1C)C(=O)N1CCCC(N1)C(=O)OCC(C)(C)C2 have?
Return: 33.9
